# protocol_notes: Plasma protein binding in human
# Format: ADME, cell-free
# test_parameters: read-out: PPB (converted)
parameter_measured: fraction unbound

P = O=C(N[C@@H]1CCC[C@H](O)C1)c1noc(-c2ccc(C(F)(F)F)cc2)c1Cl
Q = O=C(N[C@@H]1CCC[C@H](O)C1)c1noc(-c2ccc(C(F)(F)F)cc2)c1CO
Inquiry: Select the item whose fraction unbound value is smaller, choosing between P and Q . Write down the label attached to your selection.
Reply text: P
(P: 0.01, Q: 0.081)

###

# protocol_notes: AUClast in po dosed rat
# Assay type: ADME, organism-based
# Design: route oral, time 0 - last
# test_parameters: plasma
parameter_measured: AUC(0-t) (ng·h/mL)
Report the figure in ng·h/mL without appending any unit label.

Inquiry: What AUC(0-t) value was documented for this molecule, CC(C)NCc1c(C(=O)N[C@@H]2CCC[C@H](O)C2)noc1-c1ccc(C(F)(F)F)cc1 ?
Reply text: 2730

###

# protocol_notes: Intrinsic clearance in human hepatocytes assessed per 10^6 cells
# Format: ADME, cell-based, Liver, Hepatocyte
parameter_measured: hepatocyte CLint

Inquiry: Can you share its hepatocyte CLint? I mean this compound: CC(C)NCc1c(C(=O)N[C@@H]2CCC[C@H](O)C2)noc1-c1ccc(C(F)(F)F)cc1
Reply text: < 6 µL/min/1e6 cells

Origin of measurements: ChEMBL document CHEMBL1806385
